Study system: Recombinant human liver GK1 (GST-GK) (Homo sapiens)
Construct: made in house; host or cells: E. coli
Sequence (P35557 1-466 isoform P35557-2): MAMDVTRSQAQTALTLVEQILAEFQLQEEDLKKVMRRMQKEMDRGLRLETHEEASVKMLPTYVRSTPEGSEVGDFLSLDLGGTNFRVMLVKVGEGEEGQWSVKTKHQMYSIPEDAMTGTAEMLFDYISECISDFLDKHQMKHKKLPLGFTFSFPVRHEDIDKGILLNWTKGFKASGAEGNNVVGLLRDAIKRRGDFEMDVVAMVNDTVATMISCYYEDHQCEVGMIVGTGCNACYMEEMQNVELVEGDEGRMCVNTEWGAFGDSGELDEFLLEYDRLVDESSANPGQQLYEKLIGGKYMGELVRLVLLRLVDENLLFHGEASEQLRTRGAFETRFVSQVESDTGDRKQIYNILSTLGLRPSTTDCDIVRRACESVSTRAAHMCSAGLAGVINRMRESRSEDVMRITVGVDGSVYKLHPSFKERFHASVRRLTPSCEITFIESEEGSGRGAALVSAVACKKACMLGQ
Assay overview: In vitro glucokinase activity (G6PDH-coupled NADH assay)
Format: biochemical
Condition details: 30° C., 5 mM D-glucose, 10% DMSO
Quantity kind: SC1.5 (concentration of activator that produced a 50% increase in the activity of GK) (µM)

Examples with their reported SC1.5 (concentration of activator that produced a 50% increase in the activity of GK) follow.
| Molecule | Unit label | Observed result |
| --- | --- | --- |
| CCO[C@H](C)C[C@@H](C(=O)Nc1ccn(CC(C)(C)O)n1)N1CC(Oc2cccc(Cl)c2Cl)=CC1=O | µM | 0.772 |
| CC(C)C[C@@H](C(=O)Nc1ccn(C[C@@H]2COC(C)(C)O2)n1)N1CC(Oc2ccccc2Cl)=CC1=O | µM | 0.527 |

[a] C=Cc1cccc(OC2=CC(=O)N([C@@H](CC(C)C)C(=O)Nc3cnccn3)C2)c1F
[b] CC(C)(O)Cn1ccc(NC(=O)[C@H](C[C@@H]2CCCCO2)N2CC(Oc3c(F)cccc3F)=CC2=O)n1
[c] CC(C)C[C@@H](C(=O)Nc1ccn(C[C@@H](O)CO)n1)N1CC(Oc2ccc(F)cc2F)=CC1=O
[d] CC(C)(O)Cn1ccc(NC(=O)C(Cc2c(F)cccc2F)N2CC(Oc3c(F)cccc3F)=CC2=O)n1 (stereo not shown)
Q. List the 4 entries from lowest SC1.5 (concentration of activator that produced a 50% increase in the activity of GK) to highest SC1.5 (concentration of activator that produced a 50% increase in the activity of GK) value. Kindly provide the labels arranged according to the requested ordering.
A. a, b, c, d
(a: 0.172 µM, b: 0.33 µM, c: 0.578 µM, d: 1.082 µM)

###

Study system: Recombinant human liver GK1 (GST-GK) (Homo sapiens)
Construct: made in house; host or cells: E. coli
Assay overview: In vitro glucokinase activity (G6PDH-coupled NADH assay)
Format: biochemical
Condition details: 30° C., 5 mM D-glucose, 10% DMSO
Quantity kind: SC1.5 (concentration of activator that produced a 50% increase in the activity of GK) (µM)

| Molecule | Observed result |
| --- | --- |
| CC1(C)OC[C@@H](Cn2ccc(NC(=O)[C@H](Cc3c(F)cccc3F)N3CC(Oc4ccccc4Cl)=CC3=O)n2)O1 | 0.617 |
| CCOc1ccccc1OC1=CC(=O)N([C@@H](CC(C)C)C(=O)Nc2ccn(C)n2)C1.Cl | 2.591 |
| CC1(C)OC[C@@H](Cn2ccc(NC(=O)[C@H](CC3CCCCC3)N3CC(Oc4ccccc4Cl)=CC3=O)n2)O1 | 0.01 |
| COC1=CC(=O)N([C@@H](CC2CCCC2)C(=O)Nc2ncc(Cl)s2)C1 | 1.672 |
| Cc1ccc(OC2=CC(=O)N([C@@H](CC3CCCCC3)C(=O)Nc3ccn(CC(C)(C)O)n3)C2)cn1 | 0.054 |

[1] CC(C)C[C@@H](C(=O)Nc1ccn(C[C@@H](O)C[C@@H](O)CC(=O)O)n1)N1CC(Oc2ccccc2Cl)=CC1=O
[2] COc1cccc(OC2=CC(=O)N([C@@H](CC3CCCCC3)C(=O)Nc3ccn(CC(C)(C)O)n3)C2)c1Cl
[3] CC(C)(O)Cn1ccc(NC(=O)[C@H](CC2CCCCO2)N2CC(Oc3cccc(Cl)c3Cl)=CC2=O)n1 (stereo partly drawn)
Q. Reorder: SC1.5 (concentration of activator that produced a 50% increase in the activity of GK), max to min. Kindly provide the labels arranged according to the requested ordering.
A. 1, 3, 2

###

Study system: Recombinant human liver GK1 (GST-GK) (Homo sapiens, UniProt P35557)
Construct: made in house; host or cells: E. coli
Sequence (P35557 1-466 isoform P35557-2): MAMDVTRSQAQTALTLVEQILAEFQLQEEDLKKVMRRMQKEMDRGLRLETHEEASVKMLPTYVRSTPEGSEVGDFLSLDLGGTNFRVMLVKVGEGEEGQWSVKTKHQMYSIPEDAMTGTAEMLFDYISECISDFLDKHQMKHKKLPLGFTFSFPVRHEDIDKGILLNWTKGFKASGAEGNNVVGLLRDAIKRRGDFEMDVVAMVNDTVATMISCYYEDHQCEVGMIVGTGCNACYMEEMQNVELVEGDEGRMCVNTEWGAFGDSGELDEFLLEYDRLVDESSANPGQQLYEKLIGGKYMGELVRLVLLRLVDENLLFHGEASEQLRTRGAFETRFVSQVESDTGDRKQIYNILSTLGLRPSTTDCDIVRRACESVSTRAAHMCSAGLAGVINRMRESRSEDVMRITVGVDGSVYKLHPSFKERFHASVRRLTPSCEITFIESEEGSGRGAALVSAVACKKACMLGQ
Assay overview: In vitro glucokinase activity (G6PDH-coupled NADH assay)
Assay type: biochemical
Condition details: 30° C., 5 mM D-glucose, 10% DMSO
Quantity kind: SC1.5 (concentration of activator that produced a 50% increase in the activity of GK) (µM)

Examples with their reported SC1.5 (concentration of activator that produced a 50% increase in the activity of GK) follow.
| Molecule | Observed result |
| --- | --- |
| COCC[C@@H](C(=O)Nc1ccn(C[C@@H](O)CO)n1)N1CC(Oc2ccccc2Cl)=CC1=O | 6.139 |
| CC(C)C[C@@H](C(=O)Nc1ccn(C[C@@H]2C[C@H](CC(=O)OC(C)(C)C)OC(C)(C)O2)n1)N1CC(Oc2ccccc2Cl)=CC1=O | 0.412 |
| CC(CC(C(=O)Nc1ccn(CC(C)(C)O)n1)N1CC(Oc2ccccc2Cl)=CC1=O)C(F)(F)F (centres unmarked) | 0.944 |
| CC(C)C[C@@H](C(=O)Nc1ccn(C[C@@H]2COC(C)(C)O2)n1)N1CC(Oc2cccc(Br)c2F)=CC1=O | 0.351 |
| COc1cccc(OC2=CC(=O)N(C(CC(C)(C)F)C(=O)Nc3ccn(C[C@@H](O)CO)n3)C2)c1Cl (some centres unmarked) | 3.575 |

[a] COc1cccc(OC2=CC(=O)N([C@H](CC3CCOCC3)C(=O)Nc3ccn(CC(C)(C)O)n3)C2)c1Cl
[b] CC(C)C[C@@H](C(=O)Nc1ccn(C)n1)N1CC(Oc2cccc(CC(C)(C)O)c2)=CC1=O
Q. Compare a and b and name the one whose reported SC1.5 (concentration of activator that produced a 50% increase in the activity of GK) is smaller. Answer format: the label of the selected item.
A. a

[A] CC(C)C[C@@H](C(=O)Nc1ccn(C[C@@H](O)CO)n1)N1CC(Oc2cc(F)ccc2F)=CC1=O
[B] CC(C)C[C@@H](C(=O)Nc1ccn(C[C@@H](O)CO)n1)N1CC(Oc2cccc3c2CCCC3)=CC1=O
[C] CC(C)(O)Cn1ccc(NC(=O)C(C[C@H]2C[C@@H](C)C2)N2CC(Oc3ccccc3Cl)=CC2=O)n1 (some centres unmarked)
Q. List the 3 entries from lowest SC1.5 (concentration of activator that produced a 50% increase in the activity of GK) to highest SC1.5 (concentration of activator that produced a 50% increase in the activity of GK) value. Kindly provide the labels arranged according to the requested ordering.
A. C, B, A
(C: 0.137 µM, B: 0.212 µM, A: 0.33 µM)

[a] COC(=O)c1ccc(NC(=O)[C@H](CC2CCCCC2)N2CC(Oc3c(F)ccc(Cl)c3F)=CC2=O)nc1
[b] CC(C)(O)Cn1ccc(NC(=O)[C@H](CC2CCCC2)N2CC(OCc3ccccc3)=CC2=O)n1
[c] CC(C)C[C@@H](C(=O)Nc1ccn(C[C@@H]2COC(C)(C)O2)n1)N1CC(Oc2cccc(C3CC3)c2F)=CC1=O
Q. Reorder: SC1.5 (concentration of activator that produced a 50% increase in the activity of GK), max to min. Kindly provide the labels arranged according to the requested ordering.
A. b, c, a
